measurement_target: Protein deacetylase HDAC6 (Homo sapiens, UniProt Q9UBN7)
Sequence (Q9UBN7 whole entry): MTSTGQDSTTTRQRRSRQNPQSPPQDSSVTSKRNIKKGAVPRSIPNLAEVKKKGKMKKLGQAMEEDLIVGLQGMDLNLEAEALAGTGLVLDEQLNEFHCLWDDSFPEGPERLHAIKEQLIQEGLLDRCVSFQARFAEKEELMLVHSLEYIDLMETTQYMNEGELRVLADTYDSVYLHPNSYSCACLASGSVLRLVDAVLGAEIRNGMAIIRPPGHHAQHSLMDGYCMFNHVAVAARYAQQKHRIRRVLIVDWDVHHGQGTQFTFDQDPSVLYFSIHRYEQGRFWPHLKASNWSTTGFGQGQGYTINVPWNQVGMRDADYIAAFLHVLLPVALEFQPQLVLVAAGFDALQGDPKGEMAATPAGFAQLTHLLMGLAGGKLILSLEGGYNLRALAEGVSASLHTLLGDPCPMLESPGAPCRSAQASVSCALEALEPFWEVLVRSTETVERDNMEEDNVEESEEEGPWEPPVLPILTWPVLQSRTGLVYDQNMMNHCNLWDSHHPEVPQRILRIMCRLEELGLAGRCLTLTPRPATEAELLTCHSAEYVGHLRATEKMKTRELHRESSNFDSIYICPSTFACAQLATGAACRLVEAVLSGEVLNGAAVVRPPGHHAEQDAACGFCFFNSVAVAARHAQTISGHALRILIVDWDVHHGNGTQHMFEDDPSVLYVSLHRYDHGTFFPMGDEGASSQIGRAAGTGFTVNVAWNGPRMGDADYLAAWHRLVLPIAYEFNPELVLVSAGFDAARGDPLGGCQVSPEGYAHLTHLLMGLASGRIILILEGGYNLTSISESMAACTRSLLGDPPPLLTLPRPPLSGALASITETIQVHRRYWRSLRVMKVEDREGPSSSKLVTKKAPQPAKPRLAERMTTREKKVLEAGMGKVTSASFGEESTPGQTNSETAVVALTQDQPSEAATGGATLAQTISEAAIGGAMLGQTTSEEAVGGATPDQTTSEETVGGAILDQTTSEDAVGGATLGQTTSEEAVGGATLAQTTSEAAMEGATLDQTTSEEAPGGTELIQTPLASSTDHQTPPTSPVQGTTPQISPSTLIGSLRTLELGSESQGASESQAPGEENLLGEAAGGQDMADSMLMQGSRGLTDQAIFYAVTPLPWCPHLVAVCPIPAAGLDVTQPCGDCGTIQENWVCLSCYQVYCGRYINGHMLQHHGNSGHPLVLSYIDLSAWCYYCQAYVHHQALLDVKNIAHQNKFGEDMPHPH
experimental_readout: IC50 (nM)

1) Cc1cnc(Nc2ccc(OCCCCCCC(=O)NO)c(F)c2)nc1Nc1cccc(S(=O)(=O)NC(C)(C)C)c1 = 6.98

* * *

assay_comment: in vivo
reported_conditions: Sprague-Dawley, rat, po, 15 mg/kg
experimental_readout: MRT at 24 h (h)

1) Cc1cnc(Nc2ccc(OCCCCCCC(=O)NO)c(F)c2)nc1Nc1cccc(S(=O)(=O)NC(C)(C)C)c1 = 5.11
2) Cc1cnc(Nc2ccc(OCCCCCCC(=O)NO)cc2)nc1Nc1cccc(S(=O)(=O)NC(C)(C)C)c1 = 6.02

* * *

# AUC(0-t) at 24 h listing for each entry below
assay_comment: in vivo
reported_conditions: Sprague-Dawley, rat, iv, 3 mg/kg
experimental_readout: AUC(0-t) at 24 h

1. Cc1cnc(Nc2ccc(OCCCCCCC(=O)NO)cc2)nc1Nc1cccc(S(=O)(=O)NC(C)(C)C)c1 = 656 ng·h/mL
2. Cc1cnc(Nc2ccc(OCCCCCCC(=O)NO)c(F)c2)nc1Nc1cccc(S(=O)(=O)NC(C)(C)C)c1 = 508 ng·h/mL
